# Tested on: Mycolicibacterium smegmatis
# test.description: Antimycobacterial activity against Mycobacterium smegmatis NCIM 5138 assessed as growth inhibition at 0.1 mg/ml after 24 hr by agar well diffusion method
# Format: functional
# assay.context: NCIM 5138, 24 h, read-out: DIZ
measured.endpoint: zone of inhibition at 100 µg/mL
Answer format reminder: number followed by unit.

The molecule listed as Cc1nn(-c2ccccc2)c2c1C(c1cn(-c3ccccc3)nc1-c1ccc(F)cc1)C1=C(NC(C)(c3ccc(O)cc3O)NC1=O)O2 (stereo unspecified) shows zone of inhibition at 100 µg/mL equal to 4.1 mm

The molecule listed as Cc1nn(-c2ccccc2)c2c1C(c1cn(-c3ccccc3)nc1-c1ccc(F)cc1)C1=C(NC(C)(c3cc(Cl)cc(I)c3O)NC1=O)O2 (stereo unspecified) shows zone of inhibition at 100 µg/mL equal to 5.6 mm

The molecule listed as Cc1nn(-c2ccccc2)c2c1C(c1cn(-c3ccccc3)nc1-c1ccc(F)cc1)C1=C(NC(C)(c3cc(Cl)ccc3O)NC1=O)O2 (stereo unspecified) shows zone of inhibition at 100 µg/mL equal to 1.9 mm

The molecule listed as Cc1nn(-c2ccccc2)c2c1C(c1cn(-c3ccccc3)nc1-c1ccc(F)cc1)C1=C(NC(C)(c3ccc(O)c(Cl)c3O)NC1=O)O2 (stereo unspecified) shows zone of inhibition at 100 µg/mL equal to 4.5 mm

The molecule listed as Cc1nn(-c2ccccc2)c2c1C(c1cn(-c3ccccc3)nc1-c1ccc(Cl)cc1)C1=C(NC(C)(c3ccc(O)cc3O)NC1=O)O2 (stereo unspecified) shows zone of inhibition at 100 µg/mL equal to 1.6 mm

The molecule listed as COc1ccc(-c2nn(-c3ccccc3)cc2C2C3=C(NC(C)(c4cc(Cl)ccc4O)NC3=O)Oc3c2c(C)nn3-c2ccccc2)cc1 (stereo unspecified) shows zone of inhibition at 100 µg/mL equal to 2.8 mm

* * *

# System: Mycolicibacterium smegmatis
# test.description: Antimycobacterial activity against Mycobacterium smegmatis NCIM 5138 assessed as growth inhibition at 0.5 mg/ml after 24 hr by agar well diffusion method
# Type: functional
# assay.context: NCIM 5138, 24 h, read-out: DIZ
measured.endpoint: zone of inhibition at 500 µg/mL (mm)
Your answer should be a plain number; it is taken to be in mm.

The compound listed as Cc1nn(-c2ccccc2)c2c1C(c1cn(-c3ccccc3)nc1-c1ccc(Cl)cc1)C1=C(NC(C)(c3cc(Cl)cc(I)c3O)NC1=O)O2 (configuration not stated) shows zone of inhibition at 500 µg/mL equal to 5

The compound listed as Cc1nn(-c2ccccc2)c2c1C(c1cn(-c3ccccc3)nc1-c1ccc(Cl)cc1)C1=C(NC(C)(c3ccc(O)c(Cl)c3O)NC1=O)O2 (configuration not stated) shows zone of inhibition at 500 µg/mL equal to 5.2

The compound listed as Cc1nn(-c2ccccc2)c2c1C(c1cn(-c3ccccc3)nc1-c1ccc(Cl)cc1)C1=C(NC(C)(c3ccc(O)cc3O)NC1=O)O2 (configuration not stated) shows zone of inhibition at 500 µg/mL equal to 1.9

The compound listed as Cc1nn(-c2ccccc2)c2c1C(c1cn(-c3ccccc3)nc1-c1ccc(F)cc1)C1=C(NC(C)(c3cc(Cl)ccc3O)NC1=O)O2 (configuration not stated) shows zone of inhibition at 500 µg/mL equal to 2.2

The compound listed as Cc1nn(-c2ccccc2)c2c1C(c1cn(-c3ccccc3)nc1-c1ccc(F)cc1)C1=C(NC(C)(c3ccc(O)cc3O)NC1=O)O2 (configuration not stated) shows zone of inhibition at 500 µg/mL equal to 5.5

The compound listed as Cc1nn(-c2ccccc2)c2c1C(c1cn(-c3ccccc3)nc1-c1ccc(Cl)cc1)C1=C(NC(C)(c3cc(Cl)ccc3O)NC1=O)O2 (configuration not stated) shows zone of inhibition at 500 µg/mL equal to 2.3

The compound listed as COc1ccc(-c2nn(-c3ccccc3)cc2C2C3=C(NC(C)(c4cc(Cl)ccc4O)NC3=O)Oc3c2c(C)nn3-c2ccccc2)cc1 (configuration not stated) shows zone of inhibition at 500 µg/mL equal to 4.2

Measured values drawn from ChEMBL document CHEMBL3045649 for this set.
